Molecular target: T1, mouse tissue factor pathway inhibitor (TFPI) (mouse, UniProt O54819 29-289, limits assumed)
T1 construct: bought; also called mTFPI; murine TFPI
T1 sequence (looked up): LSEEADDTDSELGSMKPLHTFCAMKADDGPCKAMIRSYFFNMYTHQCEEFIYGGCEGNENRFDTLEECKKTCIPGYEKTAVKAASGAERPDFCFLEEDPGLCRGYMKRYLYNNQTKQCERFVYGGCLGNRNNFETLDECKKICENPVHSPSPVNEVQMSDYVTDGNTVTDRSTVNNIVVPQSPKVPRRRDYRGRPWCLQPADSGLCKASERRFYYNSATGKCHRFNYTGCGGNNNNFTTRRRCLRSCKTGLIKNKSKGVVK
Experiment: SPR, TFPI immobilized
pKd: −log10 of the molar value.
Reported pKd is given for each of the following binders.
OUTCOME MEASURE: pKd

# BINDER, VALUE MEASURED
measured = [
    ("2A8 HC_S54F (Fab, V domains shown, also called 2A8-7) VH: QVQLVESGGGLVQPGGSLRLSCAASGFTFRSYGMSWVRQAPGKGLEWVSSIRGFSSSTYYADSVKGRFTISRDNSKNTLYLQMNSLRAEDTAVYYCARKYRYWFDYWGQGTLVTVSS VL: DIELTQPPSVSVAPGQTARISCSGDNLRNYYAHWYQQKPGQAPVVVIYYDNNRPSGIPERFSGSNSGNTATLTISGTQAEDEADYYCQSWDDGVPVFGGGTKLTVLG", 8.68),
    ("2A8 HC_G33P (Fab, V domains shown, also called 2A8-1) VH: QVQLVESGGGLVQPGGSLRLSCAASGFTFRSYPMSWVRQAPGKGLEWVSSIRGSSSSTYYADSVKGRFTISRDNSKNTLYLQMNSLRAEDTAVYYCARKYRYWFDYWGQGTLVTVSS VL: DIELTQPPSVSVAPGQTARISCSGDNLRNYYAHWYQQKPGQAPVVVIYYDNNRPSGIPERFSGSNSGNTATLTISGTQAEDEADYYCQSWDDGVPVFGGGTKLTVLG", 8.80),
    ("2A8 LC_D91W (Fab, V domains shown, also called 2A8-17) VH: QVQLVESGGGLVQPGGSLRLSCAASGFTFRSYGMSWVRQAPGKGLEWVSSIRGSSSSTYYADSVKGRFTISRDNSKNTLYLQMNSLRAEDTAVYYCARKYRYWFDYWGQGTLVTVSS VL: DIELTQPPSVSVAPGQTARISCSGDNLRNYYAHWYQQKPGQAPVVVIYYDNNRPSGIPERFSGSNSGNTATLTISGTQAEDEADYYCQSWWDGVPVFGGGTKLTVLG", 9.09),
    ("2A8 HC_S35D (Fab, V domains shown, also called 2A8-4) VH: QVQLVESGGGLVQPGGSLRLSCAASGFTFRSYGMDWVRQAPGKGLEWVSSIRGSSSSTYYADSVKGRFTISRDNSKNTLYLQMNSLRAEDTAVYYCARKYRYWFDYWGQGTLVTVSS VL: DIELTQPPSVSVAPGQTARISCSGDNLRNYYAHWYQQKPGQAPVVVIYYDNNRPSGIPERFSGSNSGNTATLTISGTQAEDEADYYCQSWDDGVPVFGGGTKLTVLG", 8.70),
    ("2A8 HC_S31V (Fab, V domains shown, also called 2A8-3) VH: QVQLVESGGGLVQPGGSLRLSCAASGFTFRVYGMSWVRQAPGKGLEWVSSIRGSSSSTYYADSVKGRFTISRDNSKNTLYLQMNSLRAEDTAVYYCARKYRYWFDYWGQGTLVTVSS VL: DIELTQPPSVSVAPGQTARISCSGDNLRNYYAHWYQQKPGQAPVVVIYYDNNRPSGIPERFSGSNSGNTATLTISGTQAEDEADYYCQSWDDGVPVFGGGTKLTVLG", 9.23),
    ("2A8 HC_K99L (Fab, V domains shown, also called 2A8-9) VH: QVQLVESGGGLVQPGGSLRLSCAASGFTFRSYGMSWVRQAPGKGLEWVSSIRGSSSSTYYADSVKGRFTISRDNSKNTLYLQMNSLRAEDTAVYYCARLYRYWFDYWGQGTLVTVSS VL: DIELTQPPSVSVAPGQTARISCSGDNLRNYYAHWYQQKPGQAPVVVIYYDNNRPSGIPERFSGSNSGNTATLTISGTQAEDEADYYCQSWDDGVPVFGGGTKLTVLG", 9.31),
    ("4B7 HC_D62R (Fab, V domains shown, also called 4B7-D62R) VH: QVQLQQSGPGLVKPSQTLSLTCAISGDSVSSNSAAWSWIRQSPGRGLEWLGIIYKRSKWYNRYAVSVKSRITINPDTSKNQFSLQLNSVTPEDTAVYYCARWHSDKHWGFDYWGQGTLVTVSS VL: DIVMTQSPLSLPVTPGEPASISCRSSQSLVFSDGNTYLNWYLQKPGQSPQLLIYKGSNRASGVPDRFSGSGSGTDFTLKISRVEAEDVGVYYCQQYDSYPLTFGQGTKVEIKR", 9.37),
]
